system: MYLK; details: concentration: 1 μM, replicates: in singlicate; n = 1;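 note: KINOMEscan kinase panel screen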
Record form. Attribute: %Inh. Fill in for each entry.
Please reply with the bare figure in % and do not write the unit itself.

For the compound shown here, `Nc1nc(N)c2nc(-c3ccccc3)[nH]c2n1` , give the reported %Inh.
0

Can you check `Nc1nccc2scc(-c3ccc4c(c3)CCN4C(=O)Cc3ccccc3)c12` next?
4

Queued: `O=C(Nc1ccc2c(c1)OCO2)NC1CCN(c2ccnc(NCc3ccc(F)cc3)n2)CC1`
20

Quick one: `Cc1ccccc1COc1cc(-n2cnc3cc(Cl)ccc32)sc1C(N)=O`
5

Repeat for the following compound: `C[C@@H]1CC[C@H](C(=O)NC2CCCCC2)CN1c1cc(-c2ccc3c(N)n[nH]c3c2)nc(N)n1`
52

Continue with `COC(=O)c1c(-c2ccccc2)c2cc(Br)ccc2c(=O)n1Cc1ccc(NC(=O)CCC(=O)O)cc1`
29

Same lookup for `CN1C(=O)C(Nc2cc(Cl)c(O)c(Cl)c2)=C(c2ccc(Cl)cc2)C1=O` , please.
0

Let us now turn to `O=c1cc(N2CCOCC2)nc2n(Cc3ccc(F)c(Cl)c3)ccn12`
9

How about `O=C(NCc1cccs1)c1cc(C(=O)c2c(Cl)cccc2Cl)c[nH]1` ?
0

Do the same for `CN1C(=O)C(Nc2ccccc2)=C(c2ccccc2)C1=O` please
0

Now consider `CCC(=O)c1c(-c2ccccc2)c2cc(Cl)ccc2c(=O)n1Cc1cc(S(C)(=O)=O)n(CC(F)F)n1` and answer again.
0

Repeat with `Cl.NS(=O)(=O)c1cccc(Nc2cc(-c3ccc(F)cc3)n[nH]2)c1`
0

Also `Nc1ncnc2c1ncn2-c1ccc(Cl)cc1` , if possible.
0

Input `Cc1c(Cn2c(C)nn3c(=O)cc(N4CCO[C@H](C)C4)nc23)cccc1C(F)(F)F`
12

Record: `CCc1nc(-c2cccc(C)c2)c(-c2ccncc2)s1`
12

Item: COc1cc(Nc2nccc(N3CCC(NC(=O)C4COc5ccccc5O4)C3)n2)cc(OC)c1OC (stereo not drawn)
13

Now the compound `O=C(Nc1n[nH]c2nc(-c3ccccc3)c(Br)cc12)C1CC1`
7

Lookup `CCCC(=O)Nc1n[nH]c2ncc(-c3cccc4ccccc34)cc12`
28

====

tested on: MRCKA; settings: concentration: 1 μM, replicates: in singlicate; n = 1
I'd be grateful if you could share measured %Inh for these entries.
Could you give me the number in %? Just the number is fine.

For the molecule shown here, `O=C(Nc1n[nH]c2nc(-c3ccccc3)c(Br)cc12)C1CC1` , give the reported %Inh.
0

Another molecule to check: `CN(C)c1cc(-c2ccc3c(N)n[nH]c3c2)nc(N)n1`
0

Quick one: `COc1ccc(-c2cc3c(C)nc(N)nc3n([C@H]3CC[C@H](O)CC3)c2=O)cn1`
0

COc1ccc(CNC(=O)NC2CCN(c3ccnc(Nc4ccc(F)cc4)n3)C2)cc1 (stereo not shown) ?
16

Proceed to `COC(=O)c1c(-c2ccccc2)c2cc(Br)ccc2c(=O)n1Cc1ccc(NC(=O)CCC(=O)O)cc1`
0

Can you handle `Nc1ncnc2c1ncn2-c1cccc2ccccc12` next?
0

Here is the next molecule: `Nc1nc(-c2ccccc2F)c(-c2ccnc3ccccc23)s1`
15

Quick one: `Cc1cccc(-c2nc(Nc3ccc4c(cnn4C)c3)c3ccccc3n2)n1`
17

And what about the molecule `O=C1NC(=O)C(c2ccccc2)=C1Nc1cccc(O)c1` ?
0

Next entry: `O=C(NCCNc1ccnc(Nc2ccc(F)cc2)n1)Nc1ccc2c(c1)OCO2`
9

# repeat for `CCCC(=O)Nc1n[nH]c2ncc(-c3cccc4ccccc34)cc12`
9

Param item: `CCn1c(-c2nonc2N)nc2ccccc21`
0

How about this molecule: `Cc1nc(N(C)[C@H]2CN(C(=O)CC#N)CC[C@H]2C)c2cc[nH]c2n1`
0

Let us now turn to `COc1ccc(-c2cc3c(C)nc(N)nc3n([C@H]3CC[C@H](OCCO)CC3)c2=O)cn1`
0

Can you handle `O=C(Nc1ccc2c(c1)OCO2)NC1CCN(c2ccnc(NCc3ccc(F)cc3)n2)CC1` next?
0

Can you check `COc1cc2ncn(-c3cc(OCc4ccc(S(C)(=O)=O)cc4)c(C(N)=O)s3)c2cc1OC` next?
0

And what about the molecule `O=C(Nc1n[nH]c2cc(-c3ccccc3F)ccc12)C1CC1` ?
0

Please answer likewise for `CCC(=O)c1c(-c2ccccc2)c2cc(Cl)ccc2c(=O)n1Cc1cc(S(C)(=O)=O)n(CC(F)F)n1`
0

Lookup COc1cc(Nc2nccc(N3CCC(NC(=O)C(C)c4ccc(Cl)cc4)C3)n2)cc(OC)c1OC (stereo not shown)
15

Continue with `Cl.NS(=O)(=O)c1cccc(Nc2cc(-c3ccc(F)cc3)n[nH]2)c1`
0

Try COc1cc(Nc2nccc(N3CCC(NC(=O)C4COc5ccccc5O4)C3)n2)cc(OC)c1OC (stereo not shown) next.
0

And what about the molecule `Nc1nc(N)c2nc(-c3ccccc3)[nH]c2n1` ?
15

What do we get for `CCC(=O)c1c(-c2ccccc2)c2cc(Cl)ccc2c(=O)n1Cc1cc(C(=O)NC2CC2)n(C)n1` ?
8

Another molecule to check: `COc1cc2ncn(-c3cc(OCc4ccncc4)c(C(N)=O)s3)c2cc1OC`
0

Next molecule up: `FC(F)(F)c1ccc(-c2ncn(CCCN3CCOCC3)c2-c2ccncc2)cc1`
0

For `O=C(Nc1n[nH]c2nc(-c3ccccc3)c(Cl)cc12)C1CC1` then?
0

Another: `Cc1c(Cn2c(C)nn3c(=O)cc(N4CCO[C@H](C)C4)nc23)cccc1C(F)(F)F`
0

Please answer likewise for `OCCCNc1nccc(-c2c(-c3cccc(C(F)(F)F)c3)nn3cc(C(F)(F)F)ccc23)n1`
0

Now give it for `COc1cccc(C2=C(N(C)c3ccccc3)C(=O)NC2=O)c1` too.
0

What about `Cc1cccc(-c2cc(-c3c[nH]nc3-c3ccccn3)ccn2)c1` ?
9

Let us now turn to `CCC(=O)c1c(-c2ccccc2)c2cc(Cl)ccc2c(=O)n1Cc1cc(S(C)(=O)=O)n(CC(N)=O)n1`
0
